test system: KM12; assay: NCI tumour cell line growth inhibition, 48 h
The source made the active and inactive calls. Cut-off read from the data, not from the text of the source: active = GI50 up to about 1.1 µM and inactive = higher.
The categories you may choose from are active, inactive

Example results:
# compound, assigned-label
records = [
    ("COc1cc(C2c3cc4c(cc3OC(NCc3ccccc3)C2C)OCO4)cc(OC)c1OC (stereo not given)", "active"),
    ("Cn1cnc(N2CCCC2)c(C#N)c1=S", "inactive"),
    ("COc1ccc(CCCNC(=O)Cc2ccccc2CO)cc1OC", "inactive"),
    ("O=C1c2c(O)cccc2C(C(=O)CCCCC(=O)C2c3cccc(O)c3C(=O)c3c(O)cccc32)c2cccc(O)c21", "active"),
    ("O=C1c2c(ccc3c2CCC3)CC12Cc1cc3c(cc1C2)CCC3", "inactive"),
]

# input for lookup
// query Could you check what this test reported for `C[N+]1=c2c3cccc4cccc(c(=O)n2CCC1)c43` ?
// result inactive
